Target Desc: 5-HT1B (Rattus norvegicus, UniProt P28564)
Construct: from tissue; host or cells: Wistar rat cortex membranes
Sequence (P28564 whole entry): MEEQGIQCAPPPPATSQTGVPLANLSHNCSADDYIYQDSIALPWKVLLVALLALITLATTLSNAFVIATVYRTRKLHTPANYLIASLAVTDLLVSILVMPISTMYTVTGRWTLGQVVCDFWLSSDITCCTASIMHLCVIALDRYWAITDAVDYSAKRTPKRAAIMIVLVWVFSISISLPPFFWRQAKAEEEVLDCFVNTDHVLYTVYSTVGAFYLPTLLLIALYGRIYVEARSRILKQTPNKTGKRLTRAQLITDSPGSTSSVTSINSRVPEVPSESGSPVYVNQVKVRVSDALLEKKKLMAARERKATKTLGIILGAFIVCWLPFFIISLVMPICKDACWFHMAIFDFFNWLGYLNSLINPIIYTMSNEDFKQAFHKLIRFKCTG
Measurement Description: [3H]GR125743 receptor binding in rat cortex
Design: species or system Wistar rat
Observed Property: pKi
# log scale: pKi equals minus log10 of the concentration in mol/L

Please give the measured pKi for this compound: CCCCCCCCCOc1ccc2[nH]cc(CCN)c2c1 [5-nonyloxytryptamine, reference compound]
8.24

* * *

System: phenylephrine-induced contractions in rat thoracic aorta
Measurement Description: LPS-induced vascular hyporeactivity: phenylephrine-induced contractions in rat thoracic aorta
Format: in vivo, Wistar rat
Details: agent given after LPS injection (1 hr); pD2 to phenylephrine
Observed Property: pD2 at 3rd hr
Just the number, please, no unit attached.

Record excerpt, results attached:
- COC(=O)[C@@H]1[C@H]2C[C@H]3c4[nH]c5ccccc5c4CCN3C[C@@H]2CC[C@@H]1O: 6.12
- O=c1n(CCCN2CCN(c3cccc(Cl)c3)CC2)nc2ccccn12: 6.01
- Cl.N=C(N)NN [Aminoguanidine, aminoguanidine HCl]: 6.48

// next item, pD2 at 3rd hr requested
Given the entry CC=Cc1ccc(OCC(O)CN2CCN(c3cccc(Cl)c3)CC2)c(OC)c1 (stereo not shown) , what pD2 at 3rd hr was observed with phenylephrine-induced contractions in rat thoracic aorta?
6.29
